measurement-protocol: Solid state stability (25 °C/60% RH and 40 °C/75% RH, one week; XRPD and HPLC)
Format: physicochemical
details: 25 °C/60% RH/open, 1 week
Where a name gives a salt, the structure may show the parent alone.
observation-type: HPLC results Purity (solid state stability) (area %)

- compound: "Cc1nc(N[C@H](C)c2cccc(S(F)(F)(F)(F)F)c2)c2cn(C3(CF)CC3)c(=O)cc2n1 [Crystal form A compound formula I]"
  readout-unit: "area %"
  recorded-measurement: 97.13
- compound: "Cc1nc(N[C@H](C)c2cccc(S(F)(F)(F)(F)F)c2)c2cn(C3(CF)CC3)c(=O)cc2n1 [Crystal form A methanesulfonate salt]"
  readout-unit: "area %"
  recorded-measurement: 99.21
- compound: "Cc1nc(N[C@H](C)c2cccc(S(F)(F)(F)(F)F)c2)c2cn(C3(CF)CC3)c(=O)cc2n1 [Crystal form A ethanesulfonate salt]"
  readout-unit: "area %"
  recorded-measurement: 99.15
- compound: "Cc1nc(N[C@H](C)c2cccc(S(F)(F)(F)(F)F)c2)c2cn(C3(CF)CC3)c(=O)cc2n1 [Crystal form A fumarate salt]"
  readout-unit: "area %"
  recorded-measurement: 98.67
- compound: "Cc1nc(N[C@H](C)c2cccc(S(F)(F)(F)(F)F)c2)c2cn(C3(CF)CC3)c(=O)cc2n1 [Crystal form B citrate salt]"
  readout-unit: "area %"
  recorded-measurement: 99.00
